Each entry below carries its reported pIC50.
Target: IGFR-1 (Homo sapiens, UniProt P08069)
Construct: Kinases are expressed as either kinase domains or full length constructs; made in house
Sequence (P08069 31-1367): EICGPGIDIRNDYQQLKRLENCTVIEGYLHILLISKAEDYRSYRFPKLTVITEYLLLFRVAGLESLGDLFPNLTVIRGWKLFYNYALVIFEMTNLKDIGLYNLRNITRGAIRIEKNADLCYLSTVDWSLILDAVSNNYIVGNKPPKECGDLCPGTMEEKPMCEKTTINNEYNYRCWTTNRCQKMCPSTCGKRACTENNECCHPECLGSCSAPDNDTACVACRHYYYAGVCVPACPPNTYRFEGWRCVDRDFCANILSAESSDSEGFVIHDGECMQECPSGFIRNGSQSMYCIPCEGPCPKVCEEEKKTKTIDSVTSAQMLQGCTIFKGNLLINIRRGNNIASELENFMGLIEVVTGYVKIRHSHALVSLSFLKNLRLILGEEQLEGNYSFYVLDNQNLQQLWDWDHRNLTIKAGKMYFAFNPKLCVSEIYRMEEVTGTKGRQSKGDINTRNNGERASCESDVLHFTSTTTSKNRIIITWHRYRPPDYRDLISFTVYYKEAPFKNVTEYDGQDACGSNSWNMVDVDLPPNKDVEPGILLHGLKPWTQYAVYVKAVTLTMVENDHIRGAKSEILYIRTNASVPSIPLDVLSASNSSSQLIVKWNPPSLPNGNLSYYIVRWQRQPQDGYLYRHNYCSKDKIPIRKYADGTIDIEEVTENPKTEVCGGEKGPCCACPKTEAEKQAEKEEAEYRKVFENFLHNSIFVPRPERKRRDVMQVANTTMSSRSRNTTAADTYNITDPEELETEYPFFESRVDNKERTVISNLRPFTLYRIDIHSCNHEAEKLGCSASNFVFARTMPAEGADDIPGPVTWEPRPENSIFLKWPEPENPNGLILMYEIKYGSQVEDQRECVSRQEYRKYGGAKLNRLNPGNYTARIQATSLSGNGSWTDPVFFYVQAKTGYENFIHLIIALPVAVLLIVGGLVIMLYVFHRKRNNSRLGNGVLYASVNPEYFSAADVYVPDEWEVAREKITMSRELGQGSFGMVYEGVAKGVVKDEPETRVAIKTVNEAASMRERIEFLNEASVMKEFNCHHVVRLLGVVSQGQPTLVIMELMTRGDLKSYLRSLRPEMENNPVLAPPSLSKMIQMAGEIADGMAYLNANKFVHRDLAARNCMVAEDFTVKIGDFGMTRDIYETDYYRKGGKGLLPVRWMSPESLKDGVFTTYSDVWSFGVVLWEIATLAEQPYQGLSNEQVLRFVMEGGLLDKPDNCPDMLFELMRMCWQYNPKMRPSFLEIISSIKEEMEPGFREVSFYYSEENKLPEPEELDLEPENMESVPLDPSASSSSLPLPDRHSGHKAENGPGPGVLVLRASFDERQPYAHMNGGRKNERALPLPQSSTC
Test: Kinase inhibition assay (33P transfer), IGFR-1
Assay type: biochemical
Details: Table 2, class symbols A-E
pIC50: −log10 of the molar value.

Example entries and their recorded answers appear below.
Compound | Quantity measured | Value
Fc1ccc(Nc2ncnc(Nc3ccc4c(cnn4Cc4ccccc4)c3)n2)cc1F [Compound 902] | pIC50 | 5.09 to 5.25
CN(c1ccc2c(cnn2Cc2ccccc2)c1)c1ncnc(Nc2cccc(Cc3nnn[nH]3)c2)n1 [Compound 671] | pIC50 | 5.15 to 5.31
COc1cc(Nc2ncnc(N3CCCc4c(Cl)cccc43)n2)cc(OC)c1OC [Compound 643] | pIC50 | < 4.98

Quick check: pIC50 of NC(=O)Cc1cccc(Nc2ncnc(Nc3cccc(Br)c3)n2)c1 [Compound 966] ?
> 6.00

Quick check: pIC50 of COc1cc(Nc2ncnc(-c3cccnc3Nc3ccccc3)n2)ccc1NC(=O)CCCN1CCNCC1 [Compound 1093] ?
5.08 to 5.19

Quick check: pIC50 of CN(c1cccc(Cl)c1)c1ncnc(Nc2ccc3c(cnn3C)c2)n1 [Compound 674] ?
< 4.91

Quick check: pIC50 of CCN(c1cccc(Cl)c1)c1ncnc(Nc2cc(OC)cc(OC)c2)n1 [Compound 724] ?
5.21 to 5.98

Quick check: pIC50 of CN(c1cccc(Cl)c1)c1ncnc(Nc2ccc3nn(Cc4ccccc4)cc3c2)n1 [Compound 673] ?
< 4.99

Quick check: pIC50 of CN(c1cccc(Br)c1)c1ncnc(Nc2cccc(Cc3nnn[nH]3)c2)n1 [Compound 670] ?
< 4.99

Quick check: pIC50 of COc1ccc(Nc2ncnc(N(C)c3ccccc3Cl)n2)cc1OC [Compound 865] ?
< 4.92
